Reported pIC50 is given for each of the following compounds.
assay: Cytotoxicity against human BEL-7402 cells after 72 hrs by SRB assay; assay type: cell-based; details: Bel-7402, 72 h
Answer as the number alone; pIC50 is minus log10 of concentration in mol/L.

- C=C(C)C(=O)O[C@@H]1C[C@H](CO)CC/C=C(/CO)C[C@H]2OC(=O)C(=C)[C@H]12: 5.76
- C=C1C(=O)O[C@@H]2C/C(CO)=C\CC[C@@H](CO)C[C@@H](OC(=O)/C(C)=C\C)[C@@H]12: 5.52

Now consider the entry below.
Query string: // lookup pIC50 for C=C(C)C(=O)O[C@@H]1C[C@H](CO)CC/C=C(/C=O)C[C@H]2OC(=O)C(=C)[C@H]12
Result string: 5.82
